system: CD8+ T cells; assay: In vitro T-cell priming assay (immunogenicity) with artificial APCs loaded with peptide/MHC complexes and anti-CD28; assay type: cell-based, human; settings: CD8+ T cells of healthy HLA-A*02 donors, multimer staining, Table 13b
Attribute Measured: Wells positive [%]

substance="49 (FLWDPRDVVL; listed as Homo sapiens) [compound 49]" target_under_test="CD8+ T cells" result="+ (<20% = +)"
substance="47 (ALLPGVPGL; listed as Homo sapiens) [compound 47]" target_under_test="CD8+ T cells" result="++ (20-49% = ++)"
substance="29 (LLWEFPSMA; listed as Homo sapiens) [compound 29]" target_under_test="CD8+ T cells" result="++ (20-49% = ++)"
substance="33 (FASERPPSV; listed as Homo sapiens) [compound 33]" target_under_test="CD8+ T cells" result="+++ (50-69% = +++)"
substance="4 (YLGDSHVLL; listed as Homo sapiens) [compound 4]" target_under_test="CD8+ T cells" result="+ (<20% = +)"
substance="6 (ALHDSPVYL; listed as Homo sapiens) [compound 6]" target_under_test="CD8+ T cells" result="++ (20-49% = ++)"
substance="74 (TLLSYSIPL; listed as Homo sapiens) [compound 74]" target_under_test="CD8+ T cells" result="+ (<20% = +)"
substance="26 (KLWTSLVNL; listed as Homo sapiens) [compound 26]" target_under_test="CD8+ T cells" result="+++ (50-69% = +++)"
substance="101 (KLPEGHLPEV; listed as Homo sapiens) [compound 101]" target_under_test="CD8+ T cells" result="+ (<20% = +)"

* * *

biological target: HLA-A*02:01 (Homo sapiens, UniProt P04439, D140Y/D185E/D98H/E176V/E277Q/G131W/G231S/I119V/I121R/I166T/I218V/L300P/L318F/N151K/N90K/P208A/P217A/Q86G/Q94H/R138H/R169H/T345S); test: MHC binding assay (UV-ligand exchange, β2m ELISA); settings: MHC class I binding score; peptide exchange yield, binding to HLA-A*02:01, UV-ligand exchange with β2m ELISA
Attribute Measured: Peptide exchange

substance="37 (KILDEFYNV; listed as Homo sapiens) [compound 37]" attribute_measured="Peptide exchange" result="++++ (≥75% = ++++)"
substance="25 (ISVLNLSAI; listed as Homo sapiens) [compound 25]" attribute_measured="Peptide exchange" result="++ (≥20% = ++)"
substance="7 (ALWEEVKATSL; listed as Homo sapiens) [compound 7]" attribute_measured="Peptide exchange" result="++++ (≥75% = ++++)"
substance="1 (KLLDFSTRI; listed as Homo sapiens) [compound 1]" attribute_measured="Peptide exchange" result="++++ (≥75% = ++++)"
substance="67 (ALKELMGPA; listed as Homo sapiens) [compound 67]" attribute_measured="Peptide exchange" result="++ (≥20% = ++)"
substance="30 (LLRLTLLPL; listed as Homo sapiens) [compound 30]" attribute_measured="Peptide exchange" result="++ (≥20% = ++)"
substance="99 (ALMDGSESRFFV; listed as Homo sapiens) [compound 99]" attribute_measured="Peptide exchange" result="++++ (≥75% = ++++)"
substance="49 (FLWDPRDVVL; listed as Homo sapiens) [compound 49]" attribute_measured="Peptide exchange" result="++++ (≥75% = ++++)"
substance="50 (GLASYLDRV; listed as Homo sapiens) [compound 50]" attribute_measured="Peptide exchange" result="++++ (≥75% = ++++)"
